The values you see were collected from patent US8710233B2.

Collected pIC50 values appear next to each entry.
experimental target: VR1/TRPV1 receptor (Homo sapiens)
run description: IC50 (human) after pH stimulus
Type: cell-based
condition context: table 4
Note on units: pIC50 is unitless, being -log10 of a concentration expressed in mol/L.

CCC1CCN(c2nc(C(F)(F)F)ccc2CNC(=O)C(C)c2ccc(NS(C)(=O)=O)c(F)c2)CC1 (stereo not drawn) :: 7.01

Enquiry: Provide only the value of recorded pIC50 for CC(C(=O)NCc1ccc(C(F)(F)F)cc1N1CCCCCCC1)c1ccc(NS(C)(=O)=O)c(F)c1 (stereo not drawn)
Return: 7.44

Enquiry: Please look at this molecule and report its pIC50: CC(C(=O)NCc1ccc(C(F)(F)F)nc1N1CCC(c2ccc(F)cc2)CC1)c1ccc(NS(C)(=O)=O)c(F)c1 (stereo not drawn)
Return: 7.09

Enquiry: Name the recorded pIC50 of the molecule listed here: CC(C(=O)NCc1ccc(C(F)(F)F)nc1OCc1cccnc1)c1ccc(NS(C)(=O)=O)c(F)c1 (stereo not drawn)
Return: 5.46

Enquiry: Read the entry CC(C(=O)NCc1ccc(C(F)(F)F)nc1N1CCC(Nc2ccccc2)CC1)c1ccc(NS(C)(=O)=O)c(F)c1 (stereo not drawn) and write its reported pIC50.
Return: 6.32

Enquiry: Give pIC50 for the following molecule: CC(C(=O)NCc1ccc(C(F)(F)F)nc1OCC1CC1)c1ccc(NS(C)(=O)=O)c(F)c1 (stereo not drawn)
Return: 6.94

Enquiry: Please give measured pIC50 of the following entry: CC(C(=O)NCc1ccc(C(F)(F)F)nc1N1CCN(c2ccc(C(F)(F)F)cc2)CC1)c1ccc(NS(C)(=O)=O)c(F)c1 (stereo not drawn)
Return: 7.41

Enquiry: Given the molecule CC(C(=O)NCc1ccc(C(F)(F)F)nc1NCc1ccc(Cl)cc1)c1ccc(NS(C)(=O)=O)c(F)c1 (stereo not drawn) , write its reported pIC50.
Return: 6.38

Enquiry: For the molecule CC(C(=O)NCc1ccc(C(F)(F)F)nc1SC1CCCCC1)c1ccc(NS(C)(=O)=O)c(F)c1 (stereo not drawn) [Example 126] , give its reported pIC50.
Return: 7.00

Enquiry: Supply pIC50 value. Item: CC(C(=O)NCc1ccc(C(F)(F)F)nc1N1CCC(C)(C)CC1)c1ccc(NS(C)(=O)=O)c(F)c1 (stereo not drawn)
Return: 8.10

Enquiry: Annotate the molecule CCN(CC)c1nc(C(F)(F)F)ccc1CNC(=O)C(C)c1ccc(NS(C)(=O)=O)c(F)c1 (stereo not drawn) with its measured pIC50.
Return: 6.83

Enquiry: Complete the entry with pIC50 for Cc1ccc(Nc2nc(C(F)(F)F)ccc2CNC(=O)C(C)c2ccc(NS(C)(=O)=O)c(F)c2)cc1C (stereo not drawn)
Return: 5.94

Enquiry: For the molecule CC(C(=S)NCc1ccc(C(F)(F)F)nc1-c1ccc(F)cc1)c1ccc(NS(C)(=O)=O)c(F)c1 (stereo not drawn) , report pIC50.
Return: 7.46

Enquiry: For the molecule CCCCOc1cc(C(C)(C)C)ccc1CNC(=O)C(C)c1ccc(NS(C)(=O)=O)c(F)c1 (stereo not drawn) , give its reported pIC50.
Return: 6.94

Enquiry: Quick one: give measured pIC50 for CCCCCCc1nc(C(F)(F)F)ccc1CNC(=O)C(C)c1ccc(NS(C)(=O)=O)c(F)c1 (stereo not drawn)
Return: 7.62

====

experimental target: vanilloid receptor 1 (VR1/TRPV1) of the rat species (Rattus norvegicus)
Construct: The spinal column is removed from decapitated rats; from tissue; host or cells: primary cells dissociated from rat dorsal root ganglia
run description: FLIPR Ca2+ influx assay on rat dorsal root ganglia cells (pharmacological method I)
Format: cell-based
condition context: Ki (rat), Table 2; displacement of capsaicin (100 nM), Cheng-Prusoff
readout name: Ki

CC(C(=O)NCc1ccc(C(F)(F)F)nc1OC1CCCCC1)c1ccc(NS(C)(=O)=O)c(F)c1 (stereo not drawn) :: 1.5 nM
CC(C)Oc1nc(C(F)(F)F)ccc1CNC(=O)C(C)c1ccc(NS(C)(=O)=O)c(F)c1 (stereo not drawn) :: 5.4 nM

Next molecule, Ki to be filled in.
Enquiry: Look up and report measured Ki for this entry: COc1nc(C(F)(F)F)ccc1CNC(=O)C(C)c1ccc(NS(C)(=O)=O)c(F)c1 (stereo not drawn)
Return: 47 nM

====

experimental target: vanilloid receptor (VR1) (Homo sapiens, UniProt Q8NER1)
Construct: expressed in transfected cells; host or cells: CHO K1 cells (ECACC), stably transfected
Sequence (Q8NER1 whole entry): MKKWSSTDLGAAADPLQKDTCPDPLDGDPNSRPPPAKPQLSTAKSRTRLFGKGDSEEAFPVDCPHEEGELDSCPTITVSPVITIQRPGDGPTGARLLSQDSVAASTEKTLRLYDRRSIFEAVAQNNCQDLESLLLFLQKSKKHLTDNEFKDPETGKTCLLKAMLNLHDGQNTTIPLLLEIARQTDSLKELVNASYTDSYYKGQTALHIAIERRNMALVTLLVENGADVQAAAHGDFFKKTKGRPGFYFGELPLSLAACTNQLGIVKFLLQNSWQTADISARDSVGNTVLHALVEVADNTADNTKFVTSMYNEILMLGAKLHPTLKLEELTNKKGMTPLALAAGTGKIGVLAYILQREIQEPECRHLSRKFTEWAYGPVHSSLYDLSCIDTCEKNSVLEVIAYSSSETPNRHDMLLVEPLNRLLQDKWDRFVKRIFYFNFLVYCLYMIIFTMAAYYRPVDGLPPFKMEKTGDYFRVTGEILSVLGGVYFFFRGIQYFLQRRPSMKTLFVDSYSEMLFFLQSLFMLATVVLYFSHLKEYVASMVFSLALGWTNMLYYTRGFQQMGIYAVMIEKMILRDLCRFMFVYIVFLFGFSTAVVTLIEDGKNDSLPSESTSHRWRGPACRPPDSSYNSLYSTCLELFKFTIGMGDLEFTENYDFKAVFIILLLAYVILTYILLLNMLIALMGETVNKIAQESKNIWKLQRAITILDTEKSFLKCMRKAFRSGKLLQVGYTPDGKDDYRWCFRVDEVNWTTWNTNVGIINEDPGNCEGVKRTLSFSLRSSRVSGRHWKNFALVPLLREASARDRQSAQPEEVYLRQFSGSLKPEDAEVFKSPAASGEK
run description: FLIPR Ca2+ influx assay on CHO K1 cells transfected with the VR1 gene (pharmacological method II)
Assay type: cell-based
condition context: Table 2; displacement of capsaicin (100 nM), Cheng-Prusoff; read-out: Ki (human)
readout name: pKi
The value called pKi is obtained by taking minus log10 of the concentration in mol/L.

CC(C(=O)NCc1ccc(C(F)(F)F)nc1N1CCCCC1)c1ccc(NS(C)(=O)=O)c(Br)c1 (stereo not drawn) :: 8.49
CC(C(=O)NCc1ccc(C(F)(F)F)cc1N1CCCCC1)c1ccc(NS(C)(=O)=O)c(Cl)c1 (stereo not drawn) :: 8.54
COc1nc(C(F)(F)F)ccc1CNC(=O)C(C)c1ccc(NS(C)(=O)=O)c(F)c1 (stereo not drawn) :: 7.16
CC(C(=O)NCc1ccc(C(F)(F)F)cc1N1CCCCC1)c1ccc(NS(C)(=O)=O)c(F)c1 (stereo not drawn) :: 8.77
CC(C(=O)NCc1ccc(C(F)(F)F)nc1N1CCCC1)c1ccc(NS(C)(=O)=O)c(F)c1 (stereo not drawn) :: 9.22

Enquiry: Return value of pKi for input CC(C(=O)NCc1ccc(C(F)(F)F)cc1N1CCCC1)c1ccc(NS(C)(=O)=O)c(Br)c1 (stereo not drawn) , no commentary.
Return: 8.77

Enquiry: Return reported pKi. Input compound: CC(C)Oc1nc(C(F)(F)F)ccc1CNC(=O)C(C)c1ccc(NS(C)(=O)=O)c(F)c1 (stereo not drawn)
Return: 8.68

Enquiry: Please give measured pKi of the following entry: CC(C(=O)NCc1ccc(C(F)(F)F)nc1N1CCCCC1)c1ccc(NS(C)(=O)=O)c(Cl)c1 (stereo not drawn)
Return: 8.64

Enquiry: Look up and report measured pKi for this entry: CC(C(=O)NCc1ccc(C(F)(F)F)nc1N1CCCCC1)c1ccc(NS(C)(=O)=O)c(F)c1 (stereo not drawn)
Return: 9.40

====

Here, each record is paired with measured pIC50 data.
experimental target: VR1/TRPV1 receptor (Homo sapiens, UniProt Q8NER1)
Sequence (Q8NER1 whole entry): as above
run description: IC50 (human) after pH stimulus
Format: cell-based
condition context: Table 2
Interpret pIC50 as the negative base-10 log of the concentration measured in mol/L.

Below, 6 molecules whose answers are already recorded.
CC(C(=O)NCc1ccc(C(F)(F)F)nc1Br)c1ccc(NS(C)(=O)=O)c(F)c1 (centres unmarked) [Example 6] :: 5.58
C[C@@H](C(=O)NCc1ccc(C(F)(F)F)nc1N1CCCCC1)c1ccc(NS(C)(=O)=O)c(F)c1 [Example 11] :: 7.33
CC(C(=O)NCc1ccc(C(F)(F)F)nc1-c1ccccc1)c1ccc(NS(C)(=O)=O)c(F)c1 (centres unmarked) [Example 22] :: 7.21
CC(C(=O)NCc1ccc(C(F)(F)F)cc1N1CCCC1)c1ccc(NS(C)(=O)=O)c(F)c1 (centres unmarked) [Example 34] :: 6.92
COc1nc(C(F)(F)F)ccc1CNC(=O)C(C)c1ccc(NS(C)(=O)=O)c(F)c1 (centres unmarked) [Example 18] :: 5.57
CC(C)Oc1nc(C(F)(F)F)ccc1CNC(=O)C(C)c1ccc(NS(C)(=O)=O)c(F)c1 (centres unmarked) [Example 20] :: 7.03

Enquiry: Give me measured pIC50, please, for this molecule: CC(C(=O)NCc1ccc(C(F)(F)F)nc1N1CCCC1)c1ccc(NS(C)(=O)=O)c(F)c1 (centres unmarked) [Example 13]
Return: 6.68

Enquiry: Identify pIC50 associated with the molecule CC(C(=O)NCc1ccc(C(F)(F)F)cc1N1CCOCC1)c1ccc(NS(C)(=O)=O)c(F)c1 (centres unmarked) [Example 33]
Return: 5.86

====

Examples of compounds with documented inhibition at 1 µM follow.
experimental target: VR1/TRPV1 receptor (Homo sapiens, UniProt Q8NER1)
run description: IC50 (human) after pH stimulus
Assay type: cell-based
condition context: @ 1 μM; ne = no effect; read-out: inhibition in percent, IC50 (human) after pH stimulus
Kindly answer with a numeric value in %, unit omitted.

Enquiry: Could you please provide reported inhibition at 1 µM for CC(C(=O)NCc1ccc(C(F)(F)F)nc1N1CCC(=O)CC1)c1ccc(NS(C)(=O)=O)c(F)c1 (stereo not drawn) ? Thanks!
Return: 7

====

System: formaldehyde induced nociceptive behaviour
run description: Formaldehyde test in mice, second (late) phase
Assay type: in vivo, mouse
condition context: 0.3 mg/kg body weight po; mouse; read-out: inhibition formaldehyde test (n = 10)
Lab note: anything with inhibition in vivo at 0.3 mg/kg at or over 20% counts as MET; the rest go in NOT MET.

See these solved cases before continuing.
CCC1CCC(Oc2nc(C(F)(F)F)ccc2CNC(=O)C(C)c2ccc(NS(C)(=O)=O)c(F)c2)CC1 (stereo not drawn) :: MET
CC(C(=O)NCc1ccc(C(F)(F)F)nc1OCCc1ccccc1)c1ccc(NS(C)(=O)=O)c(F)c1 (stereo not drawn) :: NOT MET
CC(C(=O)NCc1ccc(C(F)(F)F)nc1N1CCN(c2ccc(F)cc2)CC1)c1ccc(NS(C)(=O)=O)c(F)c1 (stereo not drawn) :: NOT MET
CC(C(=O)NCc1ccc(C(F)(F)Cl)nc1OC1CCCC1)c1ccc(NS(C)(=O)=O)c(F)c1 (stereo not drawn) :: MET
CC(C(=O)NCc1ccc(C(F)(F)F)cc1N1CCCCCCC1)c1ccc(NS(C)(=O)=O)c(F)c1 (stereo not drawn) :: NOT MET
CC(C(=S)NCc1ccc(C(F)(F)F)nc1N1CCCC1)c1ccc(NS(C)(=O)=O)c(F)c1 (stereo not drawn) :: NOT MET
CCCCOc1cc(C(C)(C)C)ccc1CNC(=O)C(C)c1ccc(NS(C)(=O)=O)c(F)c1 (stereo not drawn) :: NOT MET
CC(C(=O)NCc1ccc(C(F)(F)F)nc1-c1ccccc1F)c1ccc(NS(C)(=O)=O)c(F)c1 (stereo not drawn) :: NOT MET

Moving on to another compound below.
Enquiry: Kindly determine if inhibition in vivo at 0.3 mg/kg recorded for CC(C(=O)NCc1ccc(C(F)(F)F)nc1-c1cccs1)c1ccc(NS(C)(=O)=O)c(F)c1 (stereo not drawn) is above or exactly 20%.
Return: NOT MET
